- assayRemarks: The drug is tested on WLS-052 corresponding to human gut metagenome with ENA study accession number: PRJEB37062 and ENA sample accession number: ERS12561747 for biotransformation under anaerobic condition. The drug concentrations were measured over 9 timepoints collected between 0 and 24 hours of incubation by liquid-chromatography-coupled mass spectrometry (LC–MS); further: call rule not given here
- conditionInfo: 2 µM
endpointName: Bacterial Biotransformation

Examples with their reported Bacterial Biotransformation follow.
molecule="CC(C)(C#N)c1cc(Cn2cncn2)cc(C(C)(C)C#N)c1 [ANASTROZOLE]" measuredresult="Compound NOT metabolized"
molecule="CC(C)c1c(C(=O)Nc2ccccc2)c(-c2ccccc2)c(-c2ccc(F)cc2)n1CC[C@@H](O)C[C@@H](O)CC(=O)O [ATORVASTATIN]" measuredresult="Compound metabolized"
molecule="COc1cc2nc(N(C)CCCNC(=O)C3CCCO3)nc(N)c2cc1OC (stereo not given) [ALFUZOSIN]" measuredresult="Compound metabolized"
molecule="O=C1NCC2(CCN(CCc3ccccc3)CC2)O1 [FENSPIRIDE]" measuredresult="Compound NOT metabolized"
molecule="CC(C)c1nc(CN(C)C(=O)N[C@H](C(=O)N[C@@H](Cc2ccccc2)C[C@H](O)[C@H](Cc2ccccc2)NC(=O)OCc2cncs2)C(C)C)cs1 [RITONAVIR]" measuredresult="Compound metabolized"

Entry under test: CCOC(=O)[C@H](CCc1ccccc1)N[C@H]1CCc2ccccc2N(CC(=O)O)C1=O [BENAZEPRIL] . Its Bacterial Biotransformation was Compound metabolized

###

- assayRemarks: The drug is tested on WLS-010 corresponding to human gut metagenome with ENA study accession number: PRJEB37062 and ENA sample accession number: ERS12561743 for biotransformation under anaerobic condition. The drug concentrations were measured over 9 timepoints collected between 0 and 24 hours of incubation by liquid-chromatography-coupled mass spectrometry (LC–MS)
- conditionInfo: 2 µM
endpointName: Bacterial Biotransformation

compound=CC[C@H](C)C(=O)O[C@H]1C[C@@H](C)C=C2C=C[C@H](C)[C@H](CC[C@@H]3C[C@@H](O)CC(=O)O3)[C@H]21 measuredresult="Compound NOT metabolized"
compound="O=C1NCC2(CCN(CCc3ccccc3)CC2)O1 [FENSPIRIDE]" measuredresult="Compound NOT metabolized"
compound="C=CCc1ccccc1OCC(O)CNC(C)C (stereo not drawn)" measuredresult="Compound NOT metabolized"

###

- conditionInfo: human gut metagenome, 24 h, 2 µM
endpointName: Bacterial Biotransformation

Illustrative cases are given below, each with its answer.
molecule="CN(C(=O)CN(CCO)CC(=O)N(C)C(C)(C)Cc1ccccc1)C(C)(C)Cc1ccccc1 [OXETHAZAINE]" measuredresult="Compound metabolized"
molecule="OCCN1CCN(CCCN2c3ccccc3Sc3ccc(C(F)(F)F)cc32)CC1 [FLUPHENAZINE]" measuredresult="Compound metabolized"
molecule="CCc1nc(N)nc(N)c1-c1ccc(Cl)cc1 [PYRIMETHAMINE]" measuredresult="Compound NOT metabolized"
molecule="O=c1[nH]c2ccccc2n1C1CCN(CCCC(c2ccc(F)cc2)c2ccc(F)cc2)CC1 [PIMOZIDE]" measuredresult="Compound metabolized"
molecule="CCC(=O)NCC[C@@H]1CCc2ccc3c(c21)CCO3 [RAMELTEON]" measuredresult="Compound metabolized"
molecule="CC(C(=O)O)c1ccc2c(c1)Cc1cccnc1O2 (configuration not stated) [PRANOPROFEN]" measuredresult="Compound metabolized"
molecule="COc1c(C)c2c(c(O)c1C/C=C(\\C)CCC(=O)OCCN1CCOCC1)C(=O)OC2 [MYCOPHENOLATE MOFETIL]" measuredresult="Compound metabolized"
molecule="O=C(O)COCCN1CCN(C(c2ccccc2)c2ccc(Cl)cc2)CC1 (configuration not stated) [CETIRIZINE]" measuredresult="Compound metabolized"

For O=C(CCCN1CCC(O)(c2ccc(Cl)cc2)CC1)c1ccc(F)cc1 [HALOPERIDOL] the molecule record lists Bacterial Biotransformation as Compound NOT metabolized

Noted for CC(CN1c2ccccc2Sc2ccccc21)N(C)C (configuration not stated) [PROMETHAZINE] : its Bacterial Biotransformation reads Compound metabolized

Record summary for Br.CN(C)CCCC1(c2ccc(F)cc2)OCc2cc(C#N)ccc21 (configuration not stated) [CITALOPRAM HYDROBROMIDE] : reported Bacterial Biotransformation = Compound metabolized

Sure, the documented Bacterial Biotransformation for COc1ccc2c3c1O[C@H]1C[C@@H](O)C=C[C@@]31CCN(C)C2 [GALANTAMINE] is Compound metabolized
